Reference source for all entries: patent EP3741773A1

Biological target: T1, meditope-enabled trastuzumab
T1 construct: after it there are no differences from the human heavy chain of trastuzumab; Full IgG was expressed; Labelled with Alexa dyes in FACS; also called TM; trastuzumab memab
T1 sequence (heavy, as listed by the source, chain 1 of 2): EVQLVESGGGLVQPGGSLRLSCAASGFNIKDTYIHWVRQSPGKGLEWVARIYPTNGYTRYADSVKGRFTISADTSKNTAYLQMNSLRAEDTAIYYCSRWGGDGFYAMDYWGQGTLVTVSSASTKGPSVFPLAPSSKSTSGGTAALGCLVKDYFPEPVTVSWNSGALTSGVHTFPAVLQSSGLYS
T1 sequence (light, as listed by the source, chain 2 of 2): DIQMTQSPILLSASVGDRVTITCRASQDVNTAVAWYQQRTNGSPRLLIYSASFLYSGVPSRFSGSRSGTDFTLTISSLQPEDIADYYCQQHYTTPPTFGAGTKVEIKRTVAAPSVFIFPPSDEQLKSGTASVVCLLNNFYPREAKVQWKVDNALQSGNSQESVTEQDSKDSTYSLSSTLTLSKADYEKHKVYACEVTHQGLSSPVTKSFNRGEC
Test: SPR
MEASUREMENT_LABEL: Kd

Provide only the value of recorded Kd for Protein L (other, also called Protein L (only); PpL) SEVTIKVNLIFADGKIQTAEFKGTFEEATAEAYRYAALLAKVNGEYTADLEDGGNHMNIKFAG ~0.5 µM
